target: T1, soluble human CD16A (sCD16A) (human, UniProt P08637 17-203); assay: ELISA, captured sCD16A
T1 construct: CD16A truncated just prior to the transmembrane region, expressed in HEK-293; The last seven residues come from vector pCDNA3.1; also called soluble form of human CD16A
T1 sequence (P08637 other isoform, or with tags, fused parts or gaps limits assumed): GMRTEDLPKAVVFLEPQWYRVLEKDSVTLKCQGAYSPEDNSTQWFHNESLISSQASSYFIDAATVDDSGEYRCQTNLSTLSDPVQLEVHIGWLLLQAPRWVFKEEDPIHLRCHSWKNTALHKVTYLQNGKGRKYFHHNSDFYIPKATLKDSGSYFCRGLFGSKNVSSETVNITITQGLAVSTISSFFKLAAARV
readout kind: binding result

binder | recorded result
hu3G8VH-2/hu3G8VL-1 (antibody, VH fused to human Cγ1 constant region) VH: QVTLKESGPALVKPTQTLTLTCTFSGFSLSTSGMGVGWIRQPPGKALEWLAHIWWDDDKRYNPALKSRLTISKDTSKNQVVLTMTNMDPVDTATYYCARINPAWFAYWGQGTLVTVSS light: DIVMTQSPDSLAVSLGERATINCKASQSVDFDGDSFMNWYQQKPGQPPKLLIYTTSNLESGVPDRFSGSGSGTDFTLTISSLQAEDVAVYYCQQSNEDPYTFGQGTKLEIKRTVAAPSVFIFPPSDEQLKSGTASVVCLLNNFYPREAKVQWKVDNALQSGNSQESVTEQDSKDSTYSLSSTLTLSKADYEKHKVYACEVTHQGLSSPVTKSFNRGEC | binds
